molecular target: Vitamin D3 receptor (Homo sapiens); assay: Inhibitors of the vitamin D receptor (VDR): qHTS; conditions: VDR-SRC2-3 peptide fluorescence polarization, 2 h; stronger effect = lower value; for max response, negative = inhibition: % is set by controls: 0 for no effect and ±100 for the full control effect
Hit rate of the full screen: of about 400,000 compounds, about 3,700 (0.93%) were called active. Not shown: some 3% with an inconclusive outcome. What follows is part of a selection rich in actives, with near analogues and random picks from the rest.
// reported max response, negative = inhibition for each item listed

Molecule: O=C(Nc1ccc([N+](=O)[O-])cc1)OCCc1ccccn1
Endpoint unit: %
max response, negative = inhibition: -15.4
--
Molecule: Cc1ccc(O)c(NC(=O)c2cc(-c3ccc(F)cc3)no2)c1
Endpoint unit: %
max response, negative = inhibition: 12
--
Molecule: Cc1ccc(CNC(=O)CCc2c(C)nc3nc(CNC(=O)OC(C)(C)C)nn3c2C)cc1
Endpoint unit: %
max response, negative = inhibition: 6.84
--
Molecule: O=C1N(Cc2ccccc2)c2ccc(Cl)cc2C1(O)c1c[nH]c2ccccc12 (stereo unspecified)
Endpoint unit: %
max response, negative = inhibition: -7.22
--
Molecule: O=C(CSc1nnc(-c2ccccc2F)o1)Nc1cccc(C(F)(F)F)c1
Endpoint unit: %
max response, negative = inhibition: -10.5
--
Molecule: CCn1c(CNC(=O)c2ccc(OC)c(OC)c2)nnc1SCC(=O)Nc1ccccc1
Endpoint unit: %
max response, negative = inhibition: 2.26
--
Molecule: COc1ccc(-n2c(SC)nc(O)cc2=O)cc1
Endpoint unit: %
max response, negative = inhibition: -7.87
--
Molecule: CCN(CCCNC(=O)Cn1ncc2c([nH]c3ccccc32)c1=O)c1cccc(C)c1
Endpoint unit: %
max response, negative = inhibition: 2.86
--
Molecule: C=CCOC(=O)C(=C)C
Endpoint unit: %
max response, negative = inhibition: 10.1
--
Molecule: COc1ccc(CCNC(=O)c2ccc3c(c2)nc(C)n3-c2ccc(Br)cc2)cc1OC
Endpoint unit: %
max response, negative = inhibition: 12.9
--
Molecule: Cc1csc(-c2coc3cc(O[C@@H]4O[C@H](CO)[C@@H](O)[C@@H](O)[C@H]4O)ccc3c2=O)n1
Endpoint unit: %
max response, negative = inhibition: 9.43
--
Molecule: COc1ccc(S(=O)(=O)Nc2cccc3cccnc23)c(N)c1
Endpoint unit: %
max response, negative = inhibition: -18.8
--
Molecule: Cc1ccccc1CSc1nc2c([nH]c3ccccc32)c(=O)n1C
Endpoint unit: %
max response, negative = inhibition: 2.18
--
Molecule: Cc1cccc(C(CC(=O)NCC2(c3ccccc3)CCCC2)c2ccccc2)c1O (stereo unspecified)
Endpoint unit: %
max response, negative = inhibition: -3.18
--
Molecule: CCN(CCCNC(=O)c1ccc(Sc2ccc(C)cc2)c(NC(C)=O)c1)c1cccc(C)c1
Endpoint unit: %
max response, negative = inhibition: 9.47
--
Molecule: CN(C(=O)CSc1nc2ccc(NC(=O)COc3ccccc3)cc2s1)c1ccccc1
Endpoint unit: %
max response, negative = inhibition: 3.21
--
Molecule: NC(=O)CSc1oc(-c2cccs2)nc1S(=O)(=O)c1ccccc1
Endpoint unit: %
max response, negative = inhibition: 2.03
--
Molecule: CCOC(=O)c1cccc(NS(=O)(=O)c2cc(-c3cnc(C)o3)ccc2OC)c1
Endpoint unit: %
max response, negative = inhibition: 1.33
--
Molecule: CC(Sc1nc(-c2ccccc2)cc(C(F)(F)F)n1)C(=O)Nc1ccc2c(c1)OCO2 (stereo unspecified)
Endpoint unit: %
max response, negative = inhibition: -18.9
--
Molecule: CCOc1ccc(NC(=O)CSc2c3c(nc4ccccc24)CCCC3)cc1
Endpoint unit: %
max response, negative = inhibition: 0.351
--
Molecule: Cc1ccc(C)c(N2CCN(C(=O)Cn3ncc4c(=O)oc5ccc(C)cc5c43)CC2)c1
Endpoint unit: %
max response, negative = inhibition: -7.32

---

target: Vitamin D3 receptor (Homo sapiens); experiment: Inhibitors of the vitamin D receptor (VDR): qHTS; conditions: VDR-SRC2-3 peptide fluorescence polarization, 2 h; note: potency is the fitted concentration of half-maximal effect
The campaign covered roughly 400,000 compounds. About 3,700 (0.93%) were called active. Inconclusive results (about 3%) are left out. The list comes from a sample in which actives are over-represented; it also holds close analogues and randomly drawn compounds.
// reported Potency for each item listed

Compound: C=CC(=O)c1ccc2ccccc2c1
Potency: 1.78 µM (active)
--
Compound: CC(Sc1nnnn1C1CCCCC1)C(=O)O (stereo not drawn)
Potency: 79.4 µM (active)
--
Compound: O=C1/C(=C\c2ccc(O)cc2)CCC1CNc1ccc(Cl)cc1 (stereo not drawn)
Potency: 79.4 µM (active)

---

target: Vitamin D3 receptor (Homo sapiens) (UniProt P11473); experiment: Inhibitors of the vitamin D receptor (VDR): qHTS; conditions: VDR-SRC2-3 peptide fluorescence polarization, 2 h; stronger effect = lower value; for max response, negative = inhibition: % is set by controls: 0 for no effect and ±100 for the full control effect
Sequence (P11473 whole entry, looked up): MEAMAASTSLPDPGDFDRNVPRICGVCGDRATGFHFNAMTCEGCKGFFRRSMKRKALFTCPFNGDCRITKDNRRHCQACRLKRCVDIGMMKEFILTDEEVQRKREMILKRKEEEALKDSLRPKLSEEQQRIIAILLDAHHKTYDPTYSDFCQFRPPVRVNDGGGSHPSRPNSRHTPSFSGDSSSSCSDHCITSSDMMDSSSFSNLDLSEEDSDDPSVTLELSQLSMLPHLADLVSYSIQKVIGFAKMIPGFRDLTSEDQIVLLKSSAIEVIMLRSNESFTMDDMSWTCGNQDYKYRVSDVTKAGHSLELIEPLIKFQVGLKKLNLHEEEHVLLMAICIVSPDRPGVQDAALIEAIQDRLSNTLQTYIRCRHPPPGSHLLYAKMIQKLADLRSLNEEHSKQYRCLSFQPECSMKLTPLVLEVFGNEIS
About 3,700 (0.93%) of roughly 400,000 compounds were called active. Roughly 3% stayed inconclusive and do not appear here. For the sample, actives were picked, then their nearest neighbours and some compounds at random.
// reported max response, negative = inhibition for each item listed
Property: max response, negative = inhibition

Molecule: O=C(c1ccco1)N(Cc1cccs1)c1ccc(O)cc1
Measurement target: Vitamin D3 receptor (Homo sapiens) (UniProt P11473)
Val: -6.28% (inactive)

Molecule: CCCCc1nnc(NC(=O)CSc2nc(C)cc(=O)[nH]2)s1
Measurement target: Vitamin D3 receptor (Homo sapiens) (UniProt P11473)
Val: -6.96% (inactive)

Molecule: COc1cc(Nc2nc(-c3ccc(OC)c(OC)c3)nc3ccccc23)cc(OC)c1
Measurement target: Vitamin D3 receptor (Homo sapiens) (UniProt P11473)
Val: 19% (inactive)

Molecule: Cc1cccc(OCCSc2nc3ccc(NC(=O)COc4ccccc4C)cc3s2)c1
Measurement target: Vitamin D3 receptor (Homo sapiens) (UniProt P11473)
Val: 4.41% (inactive)

Molecule: Cc1ccc(C(=O)COC(=O)C(Cc2c[nH]c3ccccc23)NC(=O)c2ccc(Br)cc2)cc1 (stereo unspecified)
Measurement target: Vitamin D3 receptor (Homo sapiens) (UniProt P11473)
Val: 6.05% (inactive)

Molecule: COc1ccc(-n2ccnc(NCCc3ccc(Cl)cc3)c2=O)cc1OC
Measurement target: Vitamin D3 receptor (Homo sapiens) (UniProt P11473)
Val: 6.6% (inactive)

Molecule: O=C(C1CCCN(S(=O)(=O)c2cccc3nonc23)C1)N1CCN(c2ccccc2F)CC1 (stereo unspecified)
Measurement target: Vitamin D3 receptor (Homo sapiens) (UniProt P11473)
Val: -15.4% (inactive)

Molecule: Cc1cccc(N2CCN(C(=O)CCn3c(=O)c4cccn4c4cccnc43)CC2C)c1 (stereo unspecified)
Measurement target: Vitamin D3 receptor (Homo sapiens) (UniProt P11473)
Val: -1.09% (inactive)

Molecule: CCOC(=O)C1C/C(=C\C(C)=O)c2cccc(C(F)(F)F)c2O1 (stereo unspecified)
Measurement target: Vitamin D3 receptor (Homo sapiens) (UniProt P11473)
Val: -3.65% (inactive)

Molecule: Cc1c(Cl)cccc1-c1ccc(CNCCCSc2nnnn2C)o1
Measurement target: Vitamin D3 receptor (Homo sapiens) (UniProt P11473)
Val: 17.5% (inactive)

Molecule: CCCCC/C=C\C/C=C\CCCCCCCCCC(N)=O
Measurement target: Vitamin D3 receptor (Homo sapiens) (UniProt P11473)
Val: -2.13% (inactive)

Molecule: COc1ccc(-c2nc3ccccc3s2)cc1NC(=O)COc1ccccc1C
Measurement target: Vitamin D3 receptor (Homo sapiens) (UniProt P11473)
Val: 1.1% (inactive)

Molecule: Cc1cc(NC(=O)CSc2ncc(C(=O)Nc3ccc(Cl)cc3)c(=O)n2C)no1
Measurement target: Vitamin D3 receptor (Homo sapiens) (UniProt P11473)
Val: 4.19% (inactive)

Molecule: NS(=O)(=O)c1ccc(NC(=O)CSc2nnc3c(n2)[nH]c2ccccc23)cc1
Measurement target: Vitamin D3 receptor (Homo sapiens) (UniProt P11473)
Val: 5.25% (inactive)

Molecule: Cc1ccc(C)c(NC(=O)C2CCCN(S(=O)(=O)c3cn(C)cn3)C2)c1 (stereo unspecified)
Measurement target: Vitamin D3 receptor (Homo sapiens) (UniProt P11473)
Val: 2.5% (inactive)

Molecule: Cc1cccc(N2CCN(C(=O)c3oc(=O)c4ccccc4c3-c3ccccc3)CC2)c1C
Measurement target: Vitamin D3 receptor (Homo sapiens) (UniProt P11473)
Val: -3.42% (inactive)

Molecule: CN1C(=O)CN2CCc3ccccc3C2c2cc(Cl)ccc21 (stereo unspecified)
Measurement target: Vitamin D3 receptor (Homo sapiens) (UniProt P11473)
Val: -10.7% (inactive)

Molecule: Cc1ccc2nc(CNC(=O)c3ccccc3)[nH]c2c1
Measurement target: Vitamin D3 receptor (Homo sapiens) (UniProt P11473)
Val: 11.1% (inactive)

Molecule: CCOc1cc(-c2nnc(SCC(=O)NC3CCCCC3)nc2-c2ccc(OC)c(OCC)c2)ccc1OC
Measurement target: Vitamin D3 receptor (Homo sapiens) (UniProt P11473)
Val: 15.8% (inactive)

Molecule: COc1ccc(NC(=O)CSc2nnc(-c3nnn(-c4ccc(F)cc4)c3C)o2)cc1
Measurement target: Vitamin D3 receptor (Homo sapiens) (UniProt P11473)
Val: 15.3% (inactive)

Molecule: C#CCOc1ccc(C2CC(=O)Nc3c2c(C)nn3-c2nc(C)cc(C)n2)cc1 (stereo unspecified)
Measurement target: Vitamin D3 receptor (Homo sapiens) (UniProt P11473)
Val: 10.7% (inactive)
